Each item that follows carries a reported EC50.
- target.system: Myt1 kinase (CDK1 Thr14 phosphorylation in DAOY medulloblastoma cells) (Homo sapiens)
- Construct: pCDK1 Thr14 AlphaLISA read-out
- Sequence (Q99640 whole entry): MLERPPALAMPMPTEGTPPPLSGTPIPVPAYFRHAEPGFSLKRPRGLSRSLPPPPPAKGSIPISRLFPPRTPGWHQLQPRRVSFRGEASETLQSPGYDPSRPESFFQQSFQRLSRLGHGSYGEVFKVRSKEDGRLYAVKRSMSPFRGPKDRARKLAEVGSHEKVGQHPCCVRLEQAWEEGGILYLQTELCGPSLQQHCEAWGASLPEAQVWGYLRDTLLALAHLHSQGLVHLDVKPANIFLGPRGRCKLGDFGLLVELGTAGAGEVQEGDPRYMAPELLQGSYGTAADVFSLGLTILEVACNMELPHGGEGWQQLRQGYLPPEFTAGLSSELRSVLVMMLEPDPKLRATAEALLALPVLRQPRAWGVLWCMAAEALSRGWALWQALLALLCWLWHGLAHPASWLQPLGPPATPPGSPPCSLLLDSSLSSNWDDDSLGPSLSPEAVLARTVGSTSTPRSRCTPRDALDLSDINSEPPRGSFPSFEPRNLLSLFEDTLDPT
- test.summary: AlphaLISA assay, Myt1 kinase target engagement (phospho-CDK1 Thr14) in DAOY cells
- Assay type: cell-based
- setup.conditions: 4 h treatment, read-out: CDK1 Thr14 Phosphorylation EC50

• C=CCn1c(=O)c2cnc(Nc3ccc4cccnc4c3)nc2n1-c1cccc(OC2CCN(C)CC2)n1 = 200 to 500 nM
• C=CCn1c(=O)c2cnc(Nc3ccc4c(c3)ncn4C)nc2n1-c1cccc(OC2CCN(C)CC2)n1 = < 200 nM
• C=CCn1c(=O)c2cnc(Nc3ccc4cnccc4c3)nc2n1-c1cccc(OC2CCNCC2)n1 = 500 to 1000 nM
• C=CCn1c(=O)c2cnc(Nc3ccc4[nH]ncc4c3)nc2n1-c1cccc(OC2CCN(C)CC2)n1 = 200 to 500 nM
• C=CCn1c(=O)c2cnc(Nc3ccc(C#N)c(C)c3)nc2n1-c1cccc(OC2CCN(C)CC2)n1 = > 1000 nM

Exercise: Can you look up EC50 on Myt1 kinase (CDK1 Thr14 phosphorylation in DAOY medulloblastoma cells) (Homo sapiens) for C=CCn1c(=O)c2cnc(Nc3ccnc(C)c3)nc2n1-c1cccc(OC2CCN(C)CC2)n1 ?
Key: 200 to 500 nM

Exercise: Can you look up EC50 on Myt1 kinase (CDK1 Thr14 phosphorylation in DAOY medulloblastoma cells) (Homo sapiens) for C=CCn1c(=O)c2cnc(Nc3ccc4nccnc4c3)nc2n1-c1cccc(OC2CCN(C)CC2)n1 ?
Key: 200 to 500 nM

###

- target.system: Wee1A kinase (CDK1 Tyr15 phosphorylation in ACHN renal cell carcinoma cells) (Homo sapiens, UniProt P30291)
- Construct: pCDK1 Tyr15 immunofluorescence read-out
- Sequence (P30291 whole entry): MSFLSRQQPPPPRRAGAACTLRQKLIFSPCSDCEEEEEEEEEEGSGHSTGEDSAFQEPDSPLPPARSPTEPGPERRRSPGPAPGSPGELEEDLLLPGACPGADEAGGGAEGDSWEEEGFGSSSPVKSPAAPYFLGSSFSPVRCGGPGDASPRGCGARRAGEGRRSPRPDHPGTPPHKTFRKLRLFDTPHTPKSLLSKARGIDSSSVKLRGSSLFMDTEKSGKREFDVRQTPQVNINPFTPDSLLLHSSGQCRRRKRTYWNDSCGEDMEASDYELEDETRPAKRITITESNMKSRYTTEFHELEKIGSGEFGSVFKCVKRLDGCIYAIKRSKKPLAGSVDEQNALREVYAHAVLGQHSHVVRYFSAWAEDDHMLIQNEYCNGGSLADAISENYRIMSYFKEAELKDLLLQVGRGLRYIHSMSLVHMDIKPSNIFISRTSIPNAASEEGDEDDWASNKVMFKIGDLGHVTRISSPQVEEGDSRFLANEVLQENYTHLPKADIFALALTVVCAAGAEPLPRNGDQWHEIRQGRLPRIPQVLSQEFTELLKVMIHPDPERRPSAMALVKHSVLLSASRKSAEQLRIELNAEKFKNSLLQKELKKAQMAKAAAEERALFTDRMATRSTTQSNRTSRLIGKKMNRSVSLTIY
- test.summary: High-content imaging of pCdk1 Y15, Wee1A kinase target engagement in ACHN cells
- Format: cell-based
- setup.conditions: 4 h treatment, nuclear positivity for pCdk1 Y15 vs DMSO control, read-out: CDK1 Tyr15 Phosphorylation EC50
Each item that follows carries a reported EC50.

The following compounds have reported results that may help.
• C=CCn1c(=O)c2cnc(Nc3ccc4c(cnn4C(C)C)c3)nc2n1-c1cccc(OC2CCNCC2)n1 = < 100 nM
• CCn1c(=O)c2cnc(Nc3ccc4c(cnn4C)c3)nc2n1-c1cccc(NC2CCNCC2)n1 = > 1000 nM
• C=CCn1c(=O)c2cnc(Nc3ccc4c(cnn4C)c3)nc2n1-c1cccc(OC2CCNCC2)n1 = < 100 nM

Exercise: Field request: EC50 | item: CCn1c(=O)c2cnc(Nc3cccc(-c4ccccc4)c3)nc2n1-c1cccc(OC2CCN(C)CC2)n1
Key: > 1000 nM

Exercise: Field request: EC50 | item: CN1CCC(Oc2cccc(-n3c4nc(Nc5ccc6c(cnn6C)c5)ncc4c(=O)n3C)n2)CC1
Key: < 100 nM

Exercise: Field request: EC50 | item: C=CCn1c(=O)c2cnc(Nc3ccc4c(cnn4C(C)C)c3)nc2n1-c1ccnc(OC2CCNCC2)n1
Key: < 100 nM

Exercise: Field request: EC50 | item: C=CCn1c(=O)c2cnc(Nc3ccc(Cl)cc3)nc2n1-c1cccc(O[C@@H]2CCCNC2)n1
Key: 100 to 500 nM

###

- Test system: DAOY cells
- test.summary: Cell Titer Glo viability assay, DAOY cells
- Format: cell-based
- setup.conditions: Homo sapiens, 144 h, absolute EC50
observation.type: EC50

Exercise: Field request: EC50 | item: C=CCn1c(=O)c2cnc(Nc3ccc(Cl)cc3)nc2n1-c1cccc(OC2CCN(C)CC2)n1
Key: 0.1 to 0.5 µM

Exercise: Field request: EC50 | item: C=CCn1c(=O)c2cnc(Nc3cccc(C)c3)nc2n1-c1cccc(OC2CCNCC2)n1
Key: ≤ 0.1 µM

Exercise: Field request: EC50 | item: C=CCn1c(=O)c2cnc(Nc3ccc4occc4c3)nc2n1-c1cccc(OC2CCN(C)CC2)n1
Key: ≤ 0.1 µM

Exercise: Field request: EC50 | item: C=CCn1c(=O)c2cnc(Nc3ccc4c(ccn4C)c3)nc2n1-c1cccc(OC2CCN(C)CC2)n1
Key: ≤ 0.1 µM

###

- target.system: Wee1A kinase (CDK1 Tyr15 phosphorylation in ACHN renal cell carcinoma cells) (Homo sapiens, UniProt P30291)
- Construct: pCDK1 Tyr15 immunofluorescence read-out
- test.summary: High-content imaging of pCdk1 Y15, Wee1A kinase target engagement in ACHN cells
- Type: cell-based
- setup.conditions: 4 h treatment, nuclear positivity for pCdk1 Y15 vs DMSO control, read-out: CDK1 Tyr15 Phosphorylation EC50
pEC50: −log10 of the molar value.
observation.type: pEC50

Exercise: Field request: pEC50 | item: C=CCn1c(=O)c2cnc(Nc3cccc(C)c3)nc2n1-c1cccc(NC2CCNCC2)n1
Key: 6.30 to 7.00

Exercise: Field request: pEC50 | item: C=CCn1c(=O)c2cnc(Nc3cc(C)cc(OC(F)(F)F)c3)nc2n1-c1cccc(NC2CCNCC2)n1
Key: 6.00 to 6.30

Exercise: Field request: pEC50 | item: C=CCn1c(=O)c2cnc(Nc3ccc(Cl)c(Cl)c3)nc2n1-c1cccc(NC2CCNCC2)n1
Key: < 6.00

Exercise: Field request: pEC50 | item: C=CCn1c(=O)c2cnc(Nc3ccc4[nH]nc(Cl)c4c3)nc2n1-c1cccc(OC2CCNCC2)n1
Key: < 6.00

Exercise: Field request: pEC50 | item: C=CCn1c(=O)c2cnc(Nc3ccc4c(ccn4C(C)=O)c3)nc2n1-c1cccc(OC2CCN(C)CC2)n1
Key: > 7.00

Exercise: Field request: pEC50 | item: [2H]C([2H])([2H])N1CCC(Oc2cccc(-n3c4nc(Nc5ccc6c(cnn6C(C)C)c5)ncc4c(=O)n3CC=C)n2)CC1
Key: > 7.00

Exercise: Field request: pEC50 | item: C=CCn1c(=O)c2cnc(Nc3ccc4c(cnn4CCC)c3)nc2n1-c1cccc(OC2CCNCC2)n1
Key: > 7.00

Exercise: Field request: pEC50 | item: C=CCn1c(=O)c2cnc(Nc3ccnc(C)c3)nc2n1-c1cccc(OC2CCN(C)CC2)c1
Key: 6.30 to 7.00

Exercise: Field request: pEC50 | item: C=CCn1c(=O)c2cnc(Nc3cncc(C)c3)nc2n1-c1cccc(OC2CCN(C)CC2)n1
Key: > 7.00

Exercise: Field request: pEC50 | item: C=CCn1c(=O)c2cnc(Nc3cnn(C(C)C)c3)nc2n1-c1cccc(OC2CCN(C)CC2)n1
Key: > 7.00

Exercise: Field request: pEC50 | item: C=CCn1c(=O)c2cnc(Nc3ccc4nsnc4c3)nc2n1-c1cccc(OC2CCN(C)CC2)n1
Key: > 7.00

Exercise: Field request: pEC50 | item: CCn1c(=O)c2cnc(Nc3ccc4c(c3)ncn4C)nc2n1-c1cccc(OC2CCNCC2)n1
Key: < 6.00

Exercise: Field request: pEC50 | item: C=CCn1c(=O)c2cnc(Nc3cncc(Cl)c3)nc2n1-c1cccc(OC2CCN(C)CC2)n1
Key: 6.30 to 7.00

Exercise: Field request: pEC50 | item: C=CCn1c(=O)c2cnc(Nc3ccc4c(c3)nnn4C(C)C)nc2n1-c1cccc(OC2CCNCC2)n1
Key: > 7.00

Exercise: Field request: pEC50 | item: C=CCn1c(=O)c2cnc(Nc3ccc4c(c3)nnn4C(C)C)nc2n1-c1cccc(OC2CCN(C)CC2)n1
Key: > 7.00

###

Each item that follows carries a reported EC50.
- target.system: Myt1 kinase (CDK1 Thr14 phosphorylation in DAOY medulloblastoma cells) (Homo sapiens)
- Construct: pCDK1 Thr14 AlphaLISA read-out
- test.summary: AlphaLISA assay, Myt1 kinase target engagement (phospho-CDK1 Thr14) in DAOY cells
- Format: cell-based
- setup.conditions: 4 h treatment, read-out: CDK1 Thr14 Phosphorylation EC50

* C=CCn1c(=O)c2cnc(Nc3ccc(F)cc3)nc2n1-c1cccc(OC2CCN(C)CC2)n1 | 500 to 1000 nM
* C=CCn1c(=O)c2cnc(Nc3ccc4oc(C)nc4c3)nc2n1-c1cccc(OC2CCN(C)CC2)n1 | 200 to 500 nM
* C=CCn1c(=O)c2cnc(Nc3ccc4c(cnn4C(C)C)c3)nc2n1-c1cccc(OC2CCNCC2)n1 | 200 to 500 nM
* C=CCn1c(=O)c2cnc(Nc3ccc(C#N)c(C)c3)nc2n1-c1cccc(OC2CCNCC2)n1 | 200 to 500 nM
* C=CCn1c(=O)c2cnc(Nc3ccc4cccnc4c3)nc2n1-c1cccc(OC2CCNCC2)n1 | 500 to 1000 nM

Exercise: Can you look up EC50 on Myt1 kinase (CDK1 Thr14 phosphorylation in DAOY medulloblastoma cells) (Homo sapiens) for C=CCn1c(=O)c2cnc(Nc3ccc4scnc4c3)nc2n1-c1cccc(OC2CCN(C)CC2)n1 ?
Key: < 200 nM

Exercise: Can you look up EC50 on Myt1 kinase (CDK1 Thr14 phosphorylation in DAOY medulloblastoma cells) (Homo sapiens) for C=CCn1c(=O)c2cnc(Nc3ccc4c(cnn4C)c3)nc2n1-c1cccc(O[C@H]2CCNC2)n1 ?
Key: > 1000 nM
